System: Saccharomyces cerevisiae;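 also: PSI per variant is the weighted mean of its sequencing read distribution over the sorted stability bins, counting only variants with over 10 reads summed across bins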
Experiment: protein stability index of tFT-peptide fusion in deletion strain of DOA10 (PSI (0-1 scale)); higher = more stable (slower turnover)
Is protein stability index at least 0.6? Then YES. If not, NO.

Asked: Does `CLVSLPILLFFRV` have a reported protein stability index of at least 0.6?
Given back: NO

Asked: Could you verify whether the entry `RSLRVLLPLYFV` shows protein stability index of no less than 0.6?
Given back: NO

Asked: Has `GLYMCSVGDWFR` a recorded protein stability index greater than or equal to 0.6?
Given back: YES

Asked: Is it the case that `GLYCCSVGCWFR` has protein stability index reaching or exceeding 0.6?
Given back: YES

Asked: Could you tell me if the measured protein stability index of `RSLRVLLPLAFR` reaches 0.6 or more?
Given back: YES

Asked: Does `RSLRVLKPLYFR` have a reported protein stability index of at least 0.6?
Given back: YES

Asked: Determine whether this sequence has protein stability index no lower than 0.6: `RVTRLDAIYRRI`
Given back: YES

Asked: Decide: is the reported value of protein stability index for `RSTRVLLPLYFR` equal to or greater than 0.6?
Given back: YES

Asked: Is protein stability index for `CLVSVPILLFFR` at or above 0.6?
Given back: NO

Asked: Please tell me: is the sequence `GLYMCSVGCWFRP` at or over 0.6 in terms of protein stability index?
Given back: YES

Asked: Hi team, for `AITLPMCDLLLR` , is the recorded protein stability index at or above 0.6?
Given back: YES

Asked: Dear colleague, could you confirm whether `ACTLPMCPLLLR` has protein stability index at or above 0.6?
Given back: YES

Asked: Does `GLYMCSVGCEFR` have a reported protein stability index of at least 0.6?
Given back: YES

Asked: Please indicate if the recorded protein stability index for `RSLRVLCPLYFR` meets or exceeds 0.6.
Given back: YES

Asked: Is reported protein stability index greater than or equal to 0.6 here: `RSLRVLLPLYFRW`
Given back: YES

Asked: Does the reported protein stability index for `GLYMCSVKCWFR` fall at or above the 0.6 mark?
Given back: NO

Asked: Is reported protein stability index greater than or equal to 0.6 here: `AITLPMQPLLLR`
Given back: YES

Asked: Can `RVTRLDAIYFRS` be said to have protein stability index at or above 0.6?
Given back: YES

Asked: Textbook exercise: given the entry `RVTRLDAIYFRIF` , state whether its protein stability index is greater than or equal to 0.6.
Given back: NO

Asked: Does protein stability index meet or surpass 0.6 for `GLYMCSVGCWFRG` ?
Given back: YES

Asked: Please check the record `CLVSLPILLFFQ` and state if its protein stability index is at or above 0.6.
Given back: NO

Asked: Please tell me: is the sequence `GLYMCSVGCWFE` at or over 0.6 in terms of protein stability index?
Given back: NO

Asked: Tell me whether protein stability index is at least 0.6 here: `AITLPMCPLLLM`
Given back: NO

Asked: Reported protein stability index reaches at least 0.6 for `RKTRLDAIYFRI` ?
Given back: YES

Asked: Say whether `GLYMCSVGCAFR` shows protein stability index of 0.6 or more.
Given back: YES

Asked: Please check the record `CLVSLPILLDFR` and state if its protein stability index is at or above 0.6.
Given back: YES

Asked: Has `RVTVLDAIYFRI` a recorded protein stability index greater than or equal to 0.6?
Given back: YES

Asked: Is the recorded value of protein stability index equal to or greater than 0.6 for this sequence? `GLYMCSVGCWFP`
Given back: YES

Asked: Decide: is the reported value of protein stability index for `CLVSLPQLLFFR` equal to or greater than 0.6?
Given back: YES

Asked: Exam item: decide whether the reported protein stability index for `GLYMCSVGCYFR` is at least 0.6.
Given back: YES

Asked: Say whether `AITLPMCPLLLK` shows protein stability index of 0.6 or more.
Given back: YES

Asked: Dear colleague, could you confirm whether `AITLPMCKLLLR` has protein stability index at or above 0.6?
Given back: YES

Asked: Textbook exercise: given the entry `CLVSLPCLLFFR` , state whether its protein stability index is greater than or equal to 0.6.
Given back: YES

Asked: Does protein stability index meet or surpass 0.6 for `RVTRLWAIYFRI` ?
Given back: NO

Asked: # check: protein stability index of `CLVSLPILLFFRW` is greater than or equal to 0.6
Given back: NO

Asked: In plain terms: is recorded protein stability index at least 0.6 for `GLYMCSYGCWFR` ?
Given back: YES

Asked: Test whether the sequence `CLVCLPILLFFR` records protein stability index of 0.6 or higher.
Given back: NO

Asked: Decide: protein stability index of `RSLRVLFPLYFR` >= 0.6?
Given back: YES

Asked: Does `GLYMCSVGCWFG` have a reported protein stability index of at least 0.6?
Given back: NO

Asked: Check if protein stability index >= 0.6 (inclusive). Item: `RVTRLDAIYFRIQ`
Given back: NO

Asked: Could you verify whether the entry `RSARVLLPLYFR` shows protein stability index of no less than 0.6?
Given back: YES

Asked: Given the entry `RSLRPLLPLYFR` , answer whether its protein stability index meets or surpasses 0.6.
Given back: YES

Asked: Is reported protein stability index greater than or equal to 0.6 here: `RVTRLDAIYFRG`
Given back: YES

Asked: Is it the case that `GLYMCIVGCWFR` has protein stability index reaching or exceeding 0.6?
Given back: NO

Asked: Reported protein stability index at or above 0.6? `RVTRLDAAYFRI`
Given back: YES

Asked: Exam item: decide whether the reported protein stability index for `AIKLPMCPLLLR` is at least 0.6.
Given back: YES

Asked: Tell me whether protein stability index is at least 0.6 here: `RVTRLDAIYFRT`
Given back: YES

Asked: Entry `RSLRVLLPLYFC` : is its protein stability index no less than 0.6?
Given back: NO

Asked: Kindly determine if protein stability index recorded for `RVTPLDAIYFRI` is above or exactly 0.6.
Given back: YES

Asked: API: above_or_equal(metric=protein stability index, cutoff=0.6) for item `CLVSLSILLFFR`
Given back: NO

Asked: Kindly determine if protein stability index recorded for `RSLRVLLPLYCR` is above or exactly 0.6.
Given back: NO

Asked: Item `RWTRLDAIYFRI` with protein stability index of 0.6 or above?
Given back: NO

Asked: Tell me whether protein stability index is at least 0.6 here: `RSLRVLLPLYYR`
Given back: YES

Asked: Would you say `GLYMCSVGCWNR` shows protein stability index at minimum 0.6?
Given back: YES

Asked: Evaluate `GLYMCSVGCWFRQ` : protein stability index at minimum 0.6?
Given back: NO

Asked: Determine whether this sequence has protein stability index no lower than 0.6: `GLYMCSMGCWFR`
Given back: YES

Asked: Test whether the sequence `RVTRLDAIDFRI` records protein stability index of 0.6 or higher.
Given back: YES

Asked: Tell me whether protein stability index is at least 0.6 here: `RVTRLDAIYFEI`
Given back: YES

Asked: Hello, I need to know if `AINLPMCPLLLR` has measured protein stability index not below 0.6. Thanks!
Given back: YES

Asked: Identify whether the reported protein stability index of the following sequence is 0.6 or greater: `GLYMCSVGIWFR`
Given back: NO

Asked: For this sequence, is measured protein stability index 0.6 or higher? `AYTLPMCPLLLR`
Given back: YES

Asked: For this sequence, is measured protein stability index 0.6 or higher? `CLVSLPILLFFV`
Given back: NO

Asked: Quick check, protein stability index >= 0.6? `CLVSLPILSFFR`
Given back: YES

Asked: For this sequence, is measured protein stability index 0.6 or higher? `CLVSLPILLFKR`
Given back: YES

Asked: Hi team, for `AITDPMCPLLLR` , is the recorded protein stability index at or above 0.6?
Given back: YES

Asked: Answer whether protein stability index of `RVTRLDAIYFYI` is greater than or equal to 0.6.
Given back: NO

Asked: Dear colleague, could you confirm whether `CLVSLPILGFFR` has protein stability index at or above 0.6?
Given back: YES

Asked: API: above_or_equal(metric=protein stability index, cutoff=0.6) for item `GLYMCSVGCWFRS`
Given back: NO

Asked: Does `RSLRVLLPLYFRR` have a reported protein stability index of at least 0.6?
Given back: YES

Asked: Does protein stability index meet or surpass 0.6 for `AITLPMCPLILR` ?
Given back: YES

Asked: API: above_or_equal(metric=protein stability index, cutoff=0.6) for item `RVTRLDAIYFRK`
Given back: YES

Asked: Determine whether measured protein stability index meets or exceeds 0.6 for `AITLPMCPMLLR`
Given back: YES

Asked: Given `CLVSLHILLFFR` , state whether its protein stability index is at least 0.6.
Given back: NO

Asked: Reported protein stability index reaches at least 0.6 for `CLVSLPILLFFRQ` ?
Given back: NO

Asked: Answer whether protein stability index of `CIVSLPILLFFR` is greater than or equal to 0.6.
Given back: NO

Asked: Please tell me: is the sequence `AITLPMCPLQLR` at or over 0.6 in terms of protein stability index?
Given back: YES

Asked: Has `AITLPMCPLLLD` a recorded protein stability index greater than or equal to 0.6?
Given back: YES

Cited source: the supplement of paper PMC10724198
